Measured values drawn from patent US20230045421A1 for this set.

test system: HBV rcDNA; assay: HepDE19 assay with bDNA quantitation of HBV rcDNA; type: cell-based, hepatitis B virus; details: HepDE19 assay, inhibition of formation of relaxed circular DNA (rcDNA), bDNA quantitation; read-out: DE-19bDNA EC50
pEC50: −log10 of the molar value.

MOLECULE	pEC50
CC(c1c[nH]c(=O)c2c(F)c(F)ccc12)N(C)C(=O)Nc1ccc(F)c(C#N)c1 (single isomer, unassigned) [Compound 470]	5.70
CC(c1cnc(C(N)=O)c2ccccc12)N(C)C(=O)Nc1ccc(F)c(Cl)c1 (single isomer, unassigned) [Compound 329]	6.92
CC(c1c[nH]c(=O)c2c(F)cccc12)N(C)C(=O)Nc1ccc(F)c(Cl)c1 (single isomer, unassigned) [Compound 357]	7.40
